Each entry below lists one item and its recorded OD value.
# SYSTEM NAME: recombinant soluble 1968 H3 HA (A/Aichi/2/1968) (Influenza A virus A/Aichi/2/1968 (H3N2)) (UniProt P03437)
# PROCEDURE TEXT: ELISA, supernate

BINDER	UNIT SYMBOL	OD
mAb 25F7 (antibody, V domains shown) VH: EVQLLESGGGLVQPGGSLRLSCAASGFAFSSYGMSWVRQAPGKGLEWVSAFSGSGTSTYYADSVKGRFTISRDKSKNTLYLQMNSLRAEDTAIYYCAKPPGPYIVVAGLFENWGRGTLVTVS VL: QSVLTQPPSVSGAPGQRVTISCTGTSSNIGAGYEVHWYQQLPGTAPKLIINANTNRPSGVPDRFSGSQSGTSASLAITGLRAEDEADYYCQSFDSSLSGWLFGGGTKLTVLG	OD	0.085
mAb 5I17 (antibody, V domains shown) VH: EVQLVESGGGVVQPGRSLRLSCAASGFSFSNYAMHWVRQAPGKGLEWVALISFDGSDKYYADSVKGRFTMSRDNSKNTLYLQMNSLRAEDTAVYYCARDEPYCGGDCFAFDVWGQGTMVTVS VL: DIQLTQSPSSLSASAGDRVSMTCRASQIISSSLNWYQQKPGKAPKLLIYAASNLQSGVPSRFSGSGSGTDFTLTISSLQPEDFATYYCQQSYSTPPELTFGGGTKVDIKR	OD	0.267
mAb 8F24 (antibody, V domains shown) VH: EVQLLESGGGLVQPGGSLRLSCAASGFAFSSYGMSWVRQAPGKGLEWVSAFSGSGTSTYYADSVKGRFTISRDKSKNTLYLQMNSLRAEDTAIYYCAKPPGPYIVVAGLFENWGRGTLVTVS VL: EIVMTQSPATLSVSPGERVTLSCRASQSITDGLAWYQQKSGQAPRLLIYGASTRATGIPARFSGSGSGTEFTLTISSLQSEDFAVYYCQQYNNWPPVTFGQGTKVEIKR	OD	0.669
